TARGET: D1 dopamine receptor (Homo sapiens, UniProt P21728)
Construct: Eurofins
Sequence (P21728 whole entry): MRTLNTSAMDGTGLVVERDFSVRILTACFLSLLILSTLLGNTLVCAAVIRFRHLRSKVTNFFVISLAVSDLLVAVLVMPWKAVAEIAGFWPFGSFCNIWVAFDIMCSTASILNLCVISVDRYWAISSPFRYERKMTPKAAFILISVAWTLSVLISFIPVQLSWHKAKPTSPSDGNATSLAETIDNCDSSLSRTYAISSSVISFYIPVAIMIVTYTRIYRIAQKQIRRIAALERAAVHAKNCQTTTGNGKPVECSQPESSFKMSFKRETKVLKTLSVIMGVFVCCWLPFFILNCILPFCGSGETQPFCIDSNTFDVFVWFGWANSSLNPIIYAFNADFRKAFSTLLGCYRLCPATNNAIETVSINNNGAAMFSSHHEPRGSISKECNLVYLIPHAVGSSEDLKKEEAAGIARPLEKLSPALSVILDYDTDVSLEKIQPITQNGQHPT
ASSAY_OVERVIEW: Radioligand binding assay
METRIC_NAME: pKi
In simple prose, pKi is minus the logarithm base ten of a concentration in moles per litre.

query: Return the recorded pKi value; entry: Cn1cc2cc(-c3cc4[nH]nc(C5CC5)c4n(-c4ccc(OC(F)F)cc4)c3=O)ccc2n1 [AZ’9567]
result: 4.46

----------
TARGET: Glucocorticoid Receptor NR3C1 (Homo sapiens, UniProt P04150)
Sequence (P04150 1-777): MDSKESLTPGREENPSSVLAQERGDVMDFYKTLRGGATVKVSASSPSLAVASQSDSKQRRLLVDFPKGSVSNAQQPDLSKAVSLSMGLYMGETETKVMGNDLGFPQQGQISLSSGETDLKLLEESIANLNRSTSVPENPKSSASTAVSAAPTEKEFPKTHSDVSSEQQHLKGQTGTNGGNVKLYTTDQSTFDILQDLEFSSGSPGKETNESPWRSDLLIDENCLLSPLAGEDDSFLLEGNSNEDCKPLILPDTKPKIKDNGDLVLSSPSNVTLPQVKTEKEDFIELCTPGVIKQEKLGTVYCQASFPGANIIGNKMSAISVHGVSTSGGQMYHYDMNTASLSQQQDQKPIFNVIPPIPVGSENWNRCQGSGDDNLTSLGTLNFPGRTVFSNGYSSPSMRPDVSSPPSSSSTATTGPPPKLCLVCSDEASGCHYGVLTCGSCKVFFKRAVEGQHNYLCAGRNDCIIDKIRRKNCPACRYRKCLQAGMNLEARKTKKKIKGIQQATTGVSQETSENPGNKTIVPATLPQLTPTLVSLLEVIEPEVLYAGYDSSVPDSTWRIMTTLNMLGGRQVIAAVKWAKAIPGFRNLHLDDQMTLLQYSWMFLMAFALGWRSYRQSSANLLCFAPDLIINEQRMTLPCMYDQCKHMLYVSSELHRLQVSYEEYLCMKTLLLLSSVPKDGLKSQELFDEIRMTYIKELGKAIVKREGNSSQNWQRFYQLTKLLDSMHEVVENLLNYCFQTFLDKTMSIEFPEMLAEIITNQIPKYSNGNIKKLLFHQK
METRIC_NAME: Ki (µM)
Please state the figure in µM; there is no need to write the unit.

query: Return the recorded Ki value; entry: Cn1cc2cc(-c3cc4[nH]nc(C5CC5)c4n(-c4ccc(OC(F)F)cc4)c3=O)ccc2n1 [AZ’9567]
result: 24.8
